system: CCRIS mutagenicity, Ames/micronucleus/aberration tests; assay: CCRIS mutagenicity studies; details: Test System: AMES SALMONELLA TYPHIMURIUM; Strain/Indicator: TA98; Metabolic Activation: NONE; Method: STANDARD PLATE
The source made the active and inactive calls. The rule behind the calls is not given here.
Labels: label 1 (active), label 0 (inactive)

MOLECULE	EXPERIMENTAL SYSTEM	QUALITATIVE LABEL
CC(C)(C)NCC(O)c1ccc(O)c(NC(N)=O)c1 (configuration not stated)	CCRIS mutagenicity, Ames/micronucleus/aberration tests	label 0
COC(=O)c1ccc(O)cc1	CCRIS mutagenicity, Ames/micronucleus/aberration tests	label 0
[N-]=[N+]=NC[C@H]1O[C@H](O)[C@@H](O)[C@@H](O)[C@@H]1O	CCRIS mutagenicity, Ames/micronucleus/aberration tests	label 0
COCC=O	CCRIS mutagenicity, Ames/micronucleus/aberration tests	label 0
CC(=O)c1cccn1[N+](=O)[O-]	CCRIS mutagenicity, Ames/micronucleus/aberration tests	label 1
COC1(O[C@H]2CC[C@H]3[C@@H]4CC[C@H]5C[C@@H]6S[C@@H]6C[C@]5(C)[C@H]4CC[C@]23C)CCCC1	CCRIS mutagenicity, Ames/micronucleus/aberration tests	label 0
Cc1ccc(OS(=O)(=O)c2cccc3cccnc23)c([N+](=O)[O-])c1	CCRIS mutagenicity, Ames/micronucleus/aberration tests	label 1
Cc1c(N)c(=O)n(-c2ccccc2)n1C	CCRIS mutagenicity, Ames/micronucleus/aberration tests	label 0
Cc1ccc(C=O)o1	CCRIS mutagenicity, Ames/micronucleus/aberration tests	label 0
C[C@H]1[C@H](C)CC[C@]2(C(=O)O[C@@H]3O[C@H](CO[C@@H]4O[C@H](CO)[C@@H](O[C@@H]5O[C@@H](C)[C@H](O)[C@@H](O)[C@H]5O)[C@H](O)[C@H]4O)[C@@H](O)[C@H](O)[C@H]3O)CC[C@]3(C)C(=CC[C@@H]4[C@@]5(C)C[C@@H](O)[C@H](O)[C@@](C)(CO)[C@@H]5CC[C@]43C)[C@H]12	CCRIS mutagenicity, Ames/micronucleus/aberration tests	label 0
Nc1cc([N+](=O)[O-])cc([N+](=O)[O-])c1	CCRIS mutagenicity, Ames/micronucleus/aberration tests	label 1
COP(=O)(OC)C(OC(=O)CCl)C(Cl)(Cl)Cl (configuration not stated)	CCRIS mutagenicity, Ames/micronucleus/aberration tests	label 0
Nc1snc2c(Cl)cc(Cl)cc12	CCRIS mutagenicity, Ames/micronucleus/aberration tests	label 0
Clc1ccc2c(c1)C(c1ccccc1)=NCc1nncn1-2	CCRIS mutagenicity, Ames/micronucleus/aberration tests	label 0
CCOc1ccc(C(C)(C)C)cc1NC(=O)C(=O)Nc1ccccc1CC	CCRIS mutagenicity, Ames/micronucleus/aberration tests	label 0
CCn1cc(C(=O)O)c(=O)c2cc(F)c(-c3ccncc3)c(F)c21	CCRIS mutagenicity, Ames/micronucleus/aberration tests	label 0
O=C(O)CC[C@H](NC(=O)COc1cc(Cl)c(Cl)cc1Cl)C(=O)O	CCRIS mutagenicity, Ames/micronucleus/aberration tests	label 0
CCC/C=C/C(=O)O[C@@H]1C(C)(C)C[C@@H]2C34CC3(C(C=O)=C[C@]12O)[C@@H](O)OC4=O (some centres not stated)	CCRIS mutagenicity, Ames/micronucleus/aberration tests	label 1
Cc1ccc(N=Cc2cccc3cccnc23)c(C(=O)O)c1	CCRIS mutagenicity, Ames/micronucleus/aberration tests	label 0
O=C(O)c1ccc(N=Nc2ccc(O)c(C(=O)O)c2)cc1	CCRIS mutagenicity, Ames/micronucleus/aberration tests	label 0
ClCc1cccc2c1-c1cccc3cccc-2c13	CCRIS mutagenicity, Ames/micronucleus/aberration tests	label 1
N#Cc1c(Cl)cccc1Cl	CCRIS mutagenicity, Ames/micronucleus/aberration tests	label 0
